Field: inhibition. Provide a value for each of the molecules that follow.
- Test system: TALL-104 cells, thapsigargin Ca2+ rise, fura-2 ratio
- test_description: intracellular Ca2+ signaling inhibition in T cells – TALL-104 cells, fura-2 fluorescence, CherryPick01, mechanism study for lytic granule exocytosis inhibitor project (AID 720670)
- condition_label: at 30 µM; stronger effect = higher value
Inconclusive results are not listed.
All answers are understood in %, so give the number only.

Problem: Could you share which inhibition value was measured for Cc1ccc(-n2nnc3c(=O)oc4ccccc4c32)cc1 ?
Solution: 116

Problem: Could you share which inhibition value was measured for CCC(=C(c1ccc(OC)cc1)c1ccc(OC)cc1)c1cn(CC(O)CN2CCN(C)CC2)c2ccccc12 (stereo unspecified) ?
Solution: 41.5

Problem: Could you share which inhibition value was measured for CCOC(=O)c1cc(-c2csc(Nc3c(C)cc(C)cc3C)n2)on1 ?
Solution: 79.7

Problem: Could you share which inhibition value was measured for O=C(OCc1ccccc1)N(CCCCN(CCCNCc1ccccc1)C(=O)OCc1ccccc1)CCCNCc1ccccc1 ?
Solution: 57.3

Problem: Could you share which inhibition value was measured for OC(CNCC(c1ccc(Cl)cc1Cl)c1c[nH]c2ccccc12)c1ccccc1 (stereo unspecified) ?
Solution: 34.1

Problem: Could you share which inhibition value was measured for CCOc1ccc2nc(N(CCCN(C)C)C(=O)c3ccc(S(=O)(=O)N4CCc5ccccc5C4)cc3)sc2c1 ?
Solution: 69.4

Problem: Could you share which inhibition value was measured for CC1(C(=O)OCC(=O)Nc2nc(-c3ccc(F)c(F)c3)cs2)CC1(Cl)Cl (stereo unspecified) ?
Solution: 20.1

Problem: Could you share which inhibition value was measured for CCCCC[C@@H](C)N1C[C@@H](COCc2ccccc2)Oc2cc(N3CC[C@H](N(C)C)C3)ccc2S1(=O)=O ?
Solution: 37.6

Problem: Could you share which inhibition value was measured for COc1cc(-c2coc3c(C(=O)NCc4ccc(OC)c(OC)c4)cccc23)ccc1O ?
Solution: 15.4

Problem: Could you share which inhibition value was measured for CCc1nc2ccc(C(=O)NC3CCN(Cc4ccccc4)CC3)cn2c1N(C)Cc1cc2ccccc2s1 ?
Solution: 3.6

Problem: Could you share which inhibition value was measured for CCOc1ccc2nc(C)cc(Nc3cccc([N+](=O)[O-])c3)c2c1 ?
Solution: 77.7

Problem: Could you share which inhibition value was measured for CCCCn1c(=N)n(CC(=O)c2ccc(Br)s2)c2ccccc21 ?
Solution: 58.6

Problem: Could you share which inhibition value was measured for O=S(=O)(c1ccccc1)c1nnn2c1nc(NC1CCN(Cc3ccccc3)CC1)c1cc(Cl)ccc12 ?
Solution: 79.3

Problem: Could you share which inhibition value was measured for O=C(Nc1ccc(F)cc1)c1nc(S(=O)(=O)Cc2ccccc2)ncc1Cl ?
Solution: 75.7

Problem: Could you share which inhibition value was measured for O=C(Cn1sc2ccccc2c1=O)NC12CC3CC(CC(C3)C1)C2 ?
Solution: 3

Problem: Could you share which inhibition value was measured for COC(=O)c1c(NC(=O)c2nc3ccccc3s2)sc2c1CC(C)(C)NC2(C)C ?
Solution: 41.7

Problem: Could you share which inhibition value was measured for COc1cccc(NC(=O)Nc2nc(-c3ccc(OC)c(OC)c3)cs2)c1 ?
Solution: 90.9

Problem: Could you share which inhibition value was measured for CC(C)(c1ccccc1)c1ccc(OCC(O)CNC2CCN(Cc3ccccc3)CC2)cc1 (stereo unspecified) ?
Solution: 27.1

Problem: Could you share which inhibition value was measured for CCCCC[C@@H](C)N1C[C@H](COCc2ccccc2)Oc2cc(N3CC[C@@H](N(C)C)C3)ccc2S1(=O)=O ?
Solution: 37.4

Problem: Could you share which inhibition value was measured for O=C1CC(Sc2nnnn2-c2ccccc2)C(=O)N1c1cccc(Cl)c1 (stereo unspecified) ?
Solution: 6.9

Problem: Could you share which inhibition value was measured for CCc1ccc2nc(N(CCCN(C)C)C(=O)c3ccc(S(=O)(=O)N4CCc5ccccc5C4)cc3)sc2c1 ?
Solution: 50.9

Problem: Could you share which inhibition value was measured for CCCS(=O)(=O)Nc1ccc(Nc2c3ccccc3nc3ccccc23)c(OC)c1 ?
Solution: 67.1

Problem: Could you share which inhibition value was measured for CC1=C(C)CS(=O)N(S(=O)(=O)c2ccc(Cl)cc2)C1 (stereo unspecified) ?
Solution: 11.4

Problem: Could you share which inhibition value was measured for CCOC(=O)c1nnc(-c2ccccc2)nc1Sc1ccccc1Cl ?
Solution: 21.2

Problem: Could you share which inhibition value was measured for N#Cc1c(Nc2ccccc2Cl)s[nH]c1=O ?
Solution: 9.3

Problem: Could you share which inhibition value was measured for O=C1Nc2ccc(Br)cc2/C1=C/C(=O)c1ccccc1 ?
Solution: 15.1

Problem: Could you share which inhibition value was measured for CCCCC[C@@H](C)N1C[C@@H](COCc2ccccc2)Oc2cc(N3CC[C@@H](N(C)C)C3)ccc2S1(=O)=O ?
Solution: 21.3

Problem: Could you share which inhibition value was measured for O=c1c2ccccc2sn1-c1ccccc1F ?
Solution: 18.8

Problem: Could you share which inhibition value was measured for CCc1ccc(/C=C2/Sc3ccccc3N(CC(=O)NCCCN3CCOCC3)C2=O)cc1 ?
Solution: 3.8

Problem: Could you share which inhibition value was measured for Cc1ccc(Nc2nc(NCc3ccco3)c3ccccc3n2)cc1 ?
Solution: -2.3

Problem: Could you share which inhibition value was measured for N#Cc1ccc(NC(=O)Nc2ccc(Oc3ccc(NC(=O)Nc4ccc(C#N)cc4)cc3)cc2)cc1 ?
Solution: -1.1

Problem: Could you share which inhibition value was measured for O=C(Cn1sc2ccccc2c1=O)Nc1ccc(F)cc1 ?
Solution: -21.1

Problem: Could you share which inhibition value was measured for O=C1C=CC(=O)N1N(c1ccccc1)c1ccccc1 ?
Solution: 11.2

Problem: Could you share which inhibition value was measured for CN(C)CCCNC(=S)NCC(c1ccc(Cl)cc1Cl)c1c[nH]c2ccccc12 (stereo unspecified) ?
Solution: 10.4

Problem: Could you share which inhibition value was measured for COc1ccccc1CNc1nc(NCc2ccc(C(C)C)cc2)c2sccc2n1 ?
Solution: 4.1

Problem: Could you share which inhibition value was measured for COc1ccccc1CNc1nc(NCc2ccc3occc3c2)c2sccc2n1 ?
Solution: 8.8

Problem: Could you share which inhibition value was measured for COc1cccc(-c2cnc3c(NC=O)cc(-c4ccccc4)cn23)c1 ?
Solution: 66.5

Problem: Could you share which inhibition value was measured for COc1ccc(-n2sc3ccccc3c2=O)cc1 ?
Solution: 19.8

Problem: Could you share which inhibition value was measured for CN(c1ccccc1)S(=O)(=O)c1cccc(C(=O)NCCc2c[nH]c3ccccc23)c1 ?
Solution: 78.8

Problem: Could you share which inhibition value was measured for COc1cccc(-c2cnc3c(NC(C)=O)cc(-c4ccccc4OC)cn23)c1 ?
Solution: 81.3

Problem: Could you share which inhibition value was measured for COc1ccc(-c2cc(NC=O)c3ncc(-c4ccccc4)n3c2)cc1OC ?
Solution: 31.5
